Assay: StAR promoter reporter inhibitors, counter-screen for LRH-1 inverse agonist project, cell-based, luminescence, high throughput (AID 651611)
Conditions: StAR promoter luciferase reporter counterscreen, at 3.6 µM, active compounds read high
inhibition vs 10%: at or above is yes, below is no.

>>> label_value("Cc1cccc(-n2ncc3c2CCCC3NC(=O)c2ccncc2)c1C (stereo unspecified)")
"yes"
>>> label_value("CN(C)CCNc1ccc(CO)c2sc3ccc(O)cc3c(=O)c12")
"yes"
>>> label_value("CCN(CC)CCn1c2ccccc2c2cnc(N)c(C#N)c21")
"yes"
>>> label_value("CCC(C)(C)n1nnnc1CN1CCC(O)(c2cccc(C(F)(F)F)c2)CC1")
"no"
>>> label_value("OCCCNc1c2ccccc2nc2ccccc12")
"yes"
>>> label_value("Cc1cc(C(=O)COC(=O)c2ccccc2O)c(C)n1CC1CCCO1 (stereo unspecified)")
"yes"
>>> label_value("Cc1ccc(N2C(=O)C(Cl)=C(N3CCN(C)CC3)C2=O)c(C)c1")
"yes"
>>> label_value("O=C1/C(=C\\c2ccc([N+](=O)[O-])cc2)CS(=O)(=O)C/C1=C/c1ccc([N+](=O)[O-])cc1")
"no"
>>> label_value("COc1ccc(/C=C2/CSC/C(=C/c3ccc(OC)c(OC)c3)C2=O)cc1OC")
"no"
>>> label_value("O=C(NCCc1ccccc1F)c1ccc2c(c1)OCCO2")
"yes"

* * *

Molecular target: Protein phosphatase methylesterase 1 (Homo sapiens) (UniProt Q9Y570)
Sequence (Q9Y570 whole entry, looked up): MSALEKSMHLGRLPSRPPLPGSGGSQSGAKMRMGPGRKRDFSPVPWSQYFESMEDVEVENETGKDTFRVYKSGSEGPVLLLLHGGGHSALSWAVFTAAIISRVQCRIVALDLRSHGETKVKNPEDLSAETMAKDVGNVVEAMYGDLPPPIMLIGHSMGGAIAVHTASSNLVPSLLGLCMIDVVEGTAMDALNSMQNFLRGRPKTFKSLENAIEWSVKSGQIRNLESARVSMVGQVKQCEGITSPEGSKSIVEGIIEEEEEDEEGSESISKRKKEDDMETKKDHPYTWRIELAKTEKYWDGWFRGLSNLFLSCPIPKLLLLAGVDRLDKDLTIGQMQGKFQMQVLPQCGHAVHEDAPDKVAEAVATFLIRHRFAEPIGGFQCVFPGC
Assay: PME-1 inhibitor activity retest, confirmation, biochemical, fluorescence polarization, FP-Rh probe, triplicate (AID 2171);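 further: 0% = enzyme with DMSO and 100% = wells lacking PME-1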
Conditions: recombinant PME-1, FP-Rh probe fluorescence polarization; at 5.9 µM; active compounds read high
The source made the active and inactive calls.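 The calls were made as follows: active = inhibition above the hit cutoff set in the earlier primary screen (cut at about 27% in these data); inactive = the rest.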
experimental-endpoint: inhibition

>>> observed_result("C=CCOc1c(OC)cc(/C=N/Nc2cccc(C(=O)O)c2)c(Br)c1Br")
"44.5% (active)"
>>> observed_result("COc1ccc(O)c(/C=N/Nc2nc(C)cc(-c3ccccc3)n2)c1")
"39% (active)"
>>> observed_result("Nc1c(C(=O)Nc2ccc(F)cc2)sc2nc(-c3ccco3)ccc12")
"49.6% (active)"
>>> observed_result("Cn1c(=O)c(C#N)c(-c2ccc(F)cc2)c2cc(C(=O)c3cc(Cl)cc(Cl)c3O)cnc21")
"59.1% (active)"
>>> observed_result("CN(C)c1ccc(CNC(=O)CN(C)S(=O)(=O)c2cccc3cccnc23)cc1")
"32.8% (active)"
>>> observed_result("O=C(Nc1ccc(N2CCOCC2)cc1)Nc1ccc(Cl)c(Cl)c1")
"21.4% (inactive)"
>>> observed_result("COc1cccc(-c2nc(NC3CCCC3)c3ccccc3n2)c1O")
"13.3% (inactive)"
>>> observed_result("Cc1ccc(C(=O)Nc2nnc(CC(=O)N/N=C/c3ccc(O)c(O)c3)s2)cc1")
"-26.6% (inactive)"
>>> observed_result("N#C/C(N=Nc1ccccc1O)=N\\Nc1ccccc1O")
"53.1% (active)"
>>> observed_result("O=S(=O)(Nc1nc2ccccc2nc1Nc1cccc(S(=O)(=O)N2CCCCC2)c1)c1ccccc1")
"34.9% (active)"

* * *

The entries below come with measured inhibition values attached.
Biological target: Nuclear receptor coactivator 1 (Homo sapiens)
Assay: SRC1 coactivator transcriptional activity inhibitors, confirmation, cell-based, luminescence, quadruplicate (AID 588820);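 further: 0% = DMSO wells and 100% = gossypol 36 µM treated wells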
Settings: HEK293 GAL4-SRC1 luciferase reporter, at 3.6 µM, active compounds read high
Activity calls are given as the source filed them.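 Rule for the calls: active = mean inhibition above 46.68%, the untreated control wells mean plus 3 SD; inactive = the rest.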
experimental-endpoint: inhibition

>>> observed_result("CCOC(=O)c1c(C)cc2c(CO)n[nH]c(=O)c2c1C")
"11.6% (inactive)"
>>> observed_result("COc1ccccc1NC(=O)NC1(C(=O)N2CCCCC2)CCCCC1")
"4.76% (inactive)"
>>> observed_result("COc1cc([C@@H]2c3cc4c(cc3[C@@H](O[C@@H]3O[C@@H]5CO[C@@H](C)O[C@H]5[C@H](O)[C@H]3O)[C@H]3COC(=O)[C@H]23)OCO4)cc(OC)c1O")
"62.5% (active)"
>>> observed_result("CCN(CC)S(=O)(=O)c1cc(NC(=O)CNc2cccc(S(=O)(=O)N3CCCC3)c2)ccc1C")
"-4.32% (inactive)"
>>> observed_result("CCCCCCCCCCCCCCCCCCNc1ccn(C2OC(COP(=O)(O)OCC3OC(n4cc(F)c(=O)[nH]c4=O)CC3O)C(O)C2O)c(=O)n1 (stereo not drawn)")
"51% (active)"
>>> observed_result("CCc1ccccc1Nc1nn2c(=O)c3ccc(C(=O)NCc4ccccn4)cc3nc2s1")
"42% (inactive)"
>>> observed_result("c1ccc(-n2cnc3cc(NCc4cccs4)ccc32)cc1")
"-69.4% (inactive)"
>>> observed_result("Cc1ccc(NNC(=O)C(=O)N2CCCCC2)cc1")
"-16.9% (inactive)"
>>> observed_result("C/C(=N\\NC(=O)C(C)Oc1ccc([N+](=O)[O-])cc1)c1ccccn1 (stereo not drawn)")
"-226% (inactive)"
>>> observed_result("CC(=O)Nc1ccc(SCC(=O)c2cc(C)n(Cc3cccs3)c2C)cc1")
"-1.59% (inactive)"
>>> observed_result("COc1ccc(-c2nsc3c(N4CCCCC4)ncnc23)cc1")
"1.39% (inactive)"
>>> observed_result("NC(=O)c1sc2nccc(Nc3ccccc3)c2c1N")
"53.8% (active)"
>>> observed_result("COc1ccc(NC(=O)CN(C)C(=O)C2(c3ccccc3)CCCC2)cc1")
"25.3% (inactive)"
>>> observed_result("O=C(Nc1ccncc1)c1ccccc1[N+](=O)[O-]")
"33.6% (inactive)"
>>> observed_result("Cc1cc(NCc2cccnc2)no1")
"-7.64% (inactive)"
>>> observed_result("CCOC(=O)c1[nH]c(C)c(C(=O)OCc2ccc(C)cc2)c1C")
"4.43% (inactive)"
>>> observed_result("N=C1C=CC(=C(c2ccc(N)cc2)c2ccc(N)cc2)C=C1")
"45.2% (inactive)"
>>> observed_result("Cc1cccc(C)c1NC(=O)CN(C)CC(=O)Nc1ccc(F)c(Cl)c1")
"4.35% (inactive)"
>>> observed_result("Cc1ccoc1C(=O)NCCNC(=O)c1occc1C")
"-20.6% (inactive)"
>>> observed_result("Nn1c(SCC(=O)Nc2ccccc2)nnc(Cc2ccccc2)c1=O")
"0.49% (inactive)"
>>> observed_result("CC(C)(C)c1nnc(N/N=C/c2cc(Br)ccc2O)n(N)c1=O")
"72% (active)"
>>> observed_result("Nc1nc(=O)n(C2OC(CO)C(O)C2O)cc1F (stereo not drawn)")
"40.1% (inactive)"
>>> observed_result("CC(=O)Nc1ccc(-c2csc(NC(=O)Nc3ccccc3)n2)cc1")
"-38.2% (inactive)"
>>> observed_result("CCCCCn1c2c(c(=N)c3ccccc31)CCC2")
"32% (inactive)"
>>> observed_result("Cc1ccc(NC(=O)c2cnc(N3CCN(c4ccccn4)CC3)c3ccccc23)c(Br)c1")
"-15.2% (inactive)"
>>> observed_result("Cn1c2c(c(=O)n(C)c1=O)C(C(F)(F)F)(C(F)(F)F)N=C(C1CCCCC1)N2")
"10.2% (inactive)"
>>> observed_result("c1cncc(CNc2ncnc3ccc(-c4ccoc4)cc23)c1")
"66% (active)"
>>> observed_result("COc1ccc2cc3c(N)nn(C(=O)c4ccccc4Cl)c3nc2c1")
"60.9% (active)"
>>> observed_result("Cc1ccccc1NC(=S)NNC(=O)c1csc2c1CCC(C)C2 (stereo not drawn)")
"-45.9% (inactive)"
>>> observed_result("COc1ccc(/C=C2\\SC(=O)N(CCCC(=O)Nc3cc(Cl)ccc3C(=O)O)C2=O)cc1")
"75.5% (active)"
>>> observed_result("CCN(CC)S(=O)(=O)c1ccc(/C=C/C(=O)Nc2ccc(F)c(F)c2F)cc1")
"3.76% (inactive)"
>>> observed_result("Cc1ccc(Oc2ccccc2NC(=O)CSCC(=O)Nc2cc(C)on2)cc1")
"1.59% (inactive)"
>>> observed_result("COC(=O)N(NC(=O)C(O)(CCC(C)C)CCC(C)C)c1ccccc1")
"16.2% (inactive)"
>>> observed_result("CC(C)(C)NC(=O)CSc1nc2ccc(NC(=O)CSc3nnnn3Cc3ccccc3)cc2s1")
"3.45% (inactive)"
>>> observed_result("C#CC[N+](C)(C)CCCCCCCCCC")
"9.87% (inactive)"
>>> observed_result("O=C(Nc1nc(-c2ccc(S(=O)(=O)N3CCOCC3)cc2)cs1)c1ccccc1")
"-17.1% (inactive)"
>>> observed_result("Cn1c(/C=C/c2ccc(Cl)cc2Cl)c([N+](=O)[O-])c(=O)n(C)c1=O")
"47.2% (active)"
>>> observed_result("CCCCc1ccc(NC(=O)Nc2c(C)n(C)n(-c3ccccc3)c2=O)cc1")
"-11% (inactive)"
>>> observed_result("CC(C)(C)c1nnc(N/N=C/c2ccccc2O)n(N)c1=O")
"74.4% (active)"
>>> observed_result("COc1cc2c3c([nH]c2cc1F)C(=O)NCC3")
"19.2% (inactive)"
>>> observed_result("CCCS(=O)(=O)Nc1ccc(Nc2c3ccccc3nc3ccccc23)c(OC)c1")
"56.8% (active)"
>>> observed_result("NC(=O)c1nsc(C(=O)N(c2ccccc2F)C(C(=O)NCc2ccccc2)c2ccc(O)cc2)c1N (stereo not drawn)")
"-15.1% (inactive)"
>>> observed_result("COc1cc(C2c3cc4c(cc3C(OC3OC5COC(c6cccs6)OC5C(O)C3O)C3COC(=O)C23)OCO4)cc(OC)c1O (stereo not drawn)")
"26% (inactive)"
